- target_or_system: T1, heterodimeric receptor complex (IL-22Rα/IL-10Rβ) (human, UniProt Q8N6P7 16-574; Q08334 20-325)
- T1 sequence (looked up) 1: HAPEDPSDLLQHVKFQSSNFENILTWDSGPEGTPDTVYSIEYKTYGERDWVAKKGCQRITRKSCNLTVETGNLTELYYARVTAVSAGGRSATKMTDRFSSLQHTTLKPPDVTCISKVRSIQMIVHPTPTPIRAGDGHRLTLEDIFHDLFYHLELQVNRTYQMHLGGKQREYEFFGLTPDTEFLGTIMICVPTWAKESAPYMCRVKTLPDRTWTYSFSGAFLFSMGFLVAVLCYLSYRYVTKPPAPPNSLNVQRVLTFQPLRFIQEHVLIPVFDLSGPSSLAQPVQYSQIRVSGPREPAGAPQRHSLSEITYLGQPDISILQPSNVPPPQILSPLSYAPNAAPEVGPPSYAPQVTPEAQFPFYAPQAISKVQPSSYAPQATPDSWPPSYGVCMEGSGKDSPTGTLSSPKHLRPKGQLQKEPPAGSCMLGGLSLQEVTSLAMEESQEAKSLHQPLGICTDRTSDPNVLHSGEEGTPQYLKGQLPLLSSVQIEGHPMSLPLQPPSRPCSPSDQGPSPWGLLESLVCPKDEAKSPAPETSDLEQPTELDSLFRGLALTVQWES
- T1 sequence (looked up) 2: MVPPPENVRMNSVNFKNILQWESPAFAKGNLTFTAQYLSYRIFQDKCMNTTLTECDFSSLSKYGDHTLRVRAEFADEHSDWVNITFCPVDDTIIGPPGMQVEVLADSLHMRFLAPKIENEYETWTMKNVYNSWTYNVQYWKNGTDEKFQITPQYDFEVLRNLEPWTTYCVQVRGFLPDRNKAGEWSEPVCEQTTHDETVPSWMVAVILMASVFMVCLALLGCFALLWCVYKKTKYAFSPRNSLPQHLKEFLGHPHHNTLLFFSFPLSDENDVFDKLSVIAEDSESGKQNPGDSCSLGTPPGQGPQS
- experiment_summary: cell-based or functional assay
outcome_measure: STAT1/STAT3 EC50 ratio (higher is better); FACS, HT29 cells
Answer as a number with no unit attached.

Reported STAT1/STAT3 EC50 ratio (higher is better); FACS, HT29 cells, binder 40K-PEG-IL22-P120C (ligand, Cys at position 87 (SEQ ID NO:1 numbering) conjugated to 40 kDa PEG-maleimide (thioether linkage)) APISSHCRLDKSNFQQPYITNRTFMLAKEASLADNNTDVRLIGEKLFHGVSMSERCYLMKQVLNFTLEEVLFPQSDRFQPYMQEVVCFLARLSNRLSTCHIEGDDLHIQRNVQKLKDTVKKLGESGEIKAIGELDLLFMSLRNACI : ____
9.1
